Reported Relative activity (%) values follow for various compounds
Test system: L-gulono-gamma-lactone dehydrogenase (GLDH)
Test: Effect of metal ions on GLDH enzyme activity
Assay type: biochemical, Gluconobacter oxydans DSM 4025
Details: metal 0.89 mM
observation type: Relative activity (%)

compound: O.O.O.O=[N+]([O-])[O-].O=[N+]([O-])[O-].[Cu+2] [Cu(NO3)2.3H2 O]
display unit: %
val: 0

compound: O.O.[Cl][Cu][Cl] [CuCl2.2H2 O]
display unit: %
val: 0

compound: O.O.O.O.O.O=S(=O)([O-])[O-].[Cu+2] [CuSO4.5H2 O]
display unit: %
val: 0

compound: O.O.O.O.O=[N+]([O-])[O-].O=[N+]([O-])[O-].[Ca+2] [Ca(NO3)2.4H2 O]
display unit: %
val: 96

compound: O=S(=O)([O-])[O-].[Cu+2] [CuSO4]
display unit: %
val: 12

compound: O.O.O.O.O.O.[Cl-].[Cl-].[Mg+2] [MgCl2.6H2 O]
display unit: %
val: 96

compound: O.O.O.O.O.O.[Cl-].[Cl-].[Co+2] [CoCl2.6H2 O]
display unit: %
val: 100

compound: O.O.O.O.O.O.O.O=S(=O)([O-])[O-].[Co+2] [CoSO4.7H2 O]
display unit: %
val: 88

compound: O.O.O.O.O.O.O.O=S(=O)([O-])[O-].[Zn+2] [ZnSO4.7H2 O]
display unit: %
val: 76

compound: O.O.O.O.O.O.O.O=S(=O)([O-])[O-].[Mg+2] [MgSO4.7H2 O]
display unit: %
val: 92

compound: [Ca+2].[Cl-].[Cl-] [CaCl2]
display unit: %
val: 96

compound: O.O.O.O.O.O.O.O=S(=O)([O-])[O-].[Ni+2] [NiSO4.7H2 O]
display unit: %
val: 88

compound: O.O.[Na+].[Na+].[O]=[Mo](=[O])([O-])[O-] [Na2 MoO4.2H2 O]
display unit: %
val: 88

compound: O.O.O.O.[Cl][Mn][Cl] [MnCl2.4H2 O]
display unit: %
val: 0

compound: [Cl-].[Cl-].[Zn+2] [ZnCl2]
display unit: %
val: 80
